- STUDY_TARGET: wild type α1β1γ2S GABAA receptors (Rattus norvegicus, UniProt P15431+P18508+P62813)
- Sequence (P62813 28-455): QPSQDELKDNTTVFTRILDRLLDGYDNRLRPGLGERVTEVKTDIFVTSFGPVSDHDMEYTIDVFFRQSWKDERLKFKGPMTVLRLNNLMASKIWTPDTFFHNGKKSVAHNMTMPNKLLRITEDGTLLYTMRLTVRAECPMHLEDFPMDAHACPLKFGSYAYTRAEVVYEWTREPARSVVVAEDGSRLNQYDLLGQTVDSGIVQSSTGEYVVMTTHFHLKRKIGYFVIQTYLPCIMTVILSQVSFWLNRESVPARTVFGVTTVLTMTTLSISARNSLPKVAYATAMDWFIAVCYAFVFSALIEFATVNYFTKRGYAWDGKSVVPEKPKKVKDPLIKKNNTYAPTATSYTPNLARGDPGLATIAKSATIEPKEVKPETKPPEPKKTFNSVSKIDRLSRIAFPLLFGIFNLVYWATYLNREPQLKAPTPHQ
- Sequence (P15431 26-474): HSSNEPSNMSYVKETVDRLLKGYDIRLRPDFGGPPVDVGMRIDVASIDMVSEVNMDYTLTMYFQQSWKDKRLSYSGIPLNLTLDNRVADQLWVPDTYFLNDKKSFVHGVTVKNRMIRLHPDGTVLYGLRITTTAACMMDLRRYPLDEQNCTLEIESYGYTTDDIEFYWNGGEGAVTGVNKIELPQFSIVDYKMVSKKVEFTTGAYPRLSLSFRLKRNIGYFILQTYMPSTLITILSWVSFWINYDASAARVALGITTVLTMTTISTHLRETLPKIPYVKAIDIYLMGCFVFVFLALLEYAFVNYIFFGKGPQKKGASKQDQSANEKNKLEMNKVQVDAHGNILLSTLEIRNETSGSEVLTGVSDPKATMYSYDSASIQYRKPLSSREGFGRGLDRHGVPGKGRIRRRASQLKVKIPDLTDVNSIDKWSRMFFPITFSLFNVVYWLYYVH
- Sequence (P18508 39-466): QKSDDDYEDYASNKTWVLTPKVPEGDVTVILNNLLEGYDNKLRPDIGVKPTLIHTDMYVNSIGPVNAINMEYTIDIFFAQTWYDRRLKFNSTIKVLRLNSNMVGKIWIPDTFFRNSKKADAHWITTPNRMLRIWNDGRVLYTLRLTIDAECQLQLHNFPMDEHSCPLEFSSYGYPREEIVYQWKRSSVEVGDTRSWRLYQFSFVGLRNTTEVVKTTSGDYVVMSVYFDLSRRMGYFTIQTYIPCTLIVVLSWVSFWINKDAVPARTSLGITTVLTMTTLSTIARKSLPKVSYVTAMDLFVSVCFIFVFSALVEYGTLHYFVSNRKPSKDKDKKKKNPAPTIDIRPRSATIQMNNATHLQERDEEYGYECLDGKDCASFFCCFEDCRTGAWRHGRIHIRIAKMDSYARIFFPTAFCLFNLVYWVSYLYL
- ASSAY: P4S dose response curve, wild type receptors

>  <COMPOUND>
O=S(=O)(O)C1CCNCC1 [P4S, Piperidine-4-sulfonic acid]

>  <VALUE_UNIT>
µM

>  <Kd>
110

$$$$

====

- STUDY_TARGET: wt α1β1γ2S GABAA receptors (Rattus norvegicus, UniProt P15431+P18508+P62813)
- Sequence (P62813 28-455): as the sequence (P62813 28-455) above
- Sequence (P15431 26-474): as the sequence (P15431 26-474) above
- Sequence (P18508 39-466): as the sequence (P18508 39-466) above
- ASSAY: Steroid activation
MEASUREMENT_TYPE: EC50 (nM)

>  <COMPOUND>
CC(=O)[C@H]1CC[C@H]2[C@@H]3CC[C@H]4C[C@H](O)CC[C@]4(C)[C@H]3CC[C@]12C [ALLO, 3α-hydroxy-5α-pregnan-20-one]

>  <READOUT_VALUE>
870

$$$$

====

- STUDY_TARGET: S299Cα1β1γ2S GABAA receptors (Rattus norvegicus, UniProt P15431+P18508+P62813, S325C)
- Sequence (P62813 28-455 S325C): as the sequence (P62813 28-455) above, with S298C counted along it
- Sequence (P15431 26-474): as the sequence (P15431 26-474) above
- Sequence (P18508 39-466): as the sequence (P18508 39-466) above
- ASSAY: Steroid activation
- Assay type: cell-based
- CONDITION_INFO: EC50, second activation curve, second plateau to valley fit as a separate curve
pEC50: −log10 of the molar value.
MEASUREMENT_TYPE: pEC50

>  <MOLECULE>
CC(=O)[C@H]1CC[C@H]2[C@@H]3CC[C@H]4C[C@H](O)CC[C@]4(C)[C@H]3CC[C@]12C [ALLO, 3α-hydroxy-5α-pregnan-20-one]

>  <STUDY_TARGET>
S299Cα1β1γ2S GABAA receptors (Rattus norvegicus, UniProt P15431+P18508+P62813, S325C)

>  <MEASUREMENT_TYPE>
pEC50

>  <READOUT_VALUE>
7.15

$$$$

====

- STUDY_TARGET: S299Cα1β1γ2S GABAA receptors (Rattus norvegicus, UniProt P15431+P18508+P62813, S325C)
- ASSAY: Steroid activation
- Type: cell-based
- CONDITION_INFO: EC50, first activation curve, first plateau to valley fit as a separate curve
MEASUREMENT_TYPE: EC50 (nM)

>  <COMPOUND>
CC(=O)[C@H]1CC[C@H]2[C@@H]3CC[C@H]4C[C@H](O)CC[C@]4(C)[C@H]3CC[C@]12C [ALLO, 3α-hydroxy-5α-pregnan-20-one]

>  <MEASUREMENT_TYPE>
EC50

>  <VALUE_UNIT>
nM

>  <READOUT_VALUE>
0.59

$$$$

====

- STUDY_TARGET: S299Cα1β1γ2S GABAA receptors (Rattus norvegicus, UniProt P15431+P18508+P62813, S325C)
- ASSAY: P4S dose response curve, S299C receptors

>  <SMILES>
O=S(=O)(O)C1CCNCC1

>  <Kd>
90 µM

$$$$

The measured values listed here are drawn from paper PMC3175280.
